molecular target: UniProtKB Q9BGL2
Sequence (Q9BGL2 whole entry): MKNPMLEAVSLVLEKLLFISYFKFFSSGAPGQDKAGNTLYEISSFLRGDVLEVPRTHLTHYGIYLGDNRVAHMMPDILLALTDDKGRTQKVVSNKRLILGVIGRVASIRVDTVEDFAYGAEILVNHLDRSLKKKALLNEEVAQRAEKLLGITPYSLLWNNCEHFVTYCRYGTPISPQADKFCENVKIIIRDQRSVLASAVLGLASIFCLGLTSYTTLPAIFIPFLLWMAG
pIC50: −log10 of the molar value.

{"molecule": "CC1=C(/C=C/C(C)=C/C=C/C(C)=C/C(=O)Nc2ccc(O)cc2)C(C)(C)CCC1 [HPR, N-(4-hydroxyphenyl)retinamide]", "pIC50": "~4.70"}

---

biological target: CRALBP (Homo sapiens, UniProt P12271)
Sequence (P12271 whole entry, species assumed): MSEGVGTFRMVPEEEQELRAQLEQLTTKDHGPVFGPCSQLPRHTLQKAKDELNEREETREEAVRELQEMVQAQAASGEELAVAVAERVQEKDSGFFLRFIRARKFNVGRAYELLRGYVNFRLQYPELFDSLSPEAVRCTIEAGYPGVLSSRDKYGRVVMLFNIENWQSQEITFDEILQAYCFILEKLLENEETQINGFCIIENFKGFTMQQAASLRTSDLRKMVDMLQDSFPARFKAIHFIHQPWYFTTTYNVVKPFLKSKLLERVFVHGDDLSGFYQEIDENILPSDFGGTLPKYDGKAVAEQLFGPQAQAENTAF
pKd: −log10 of the molar value.
reportedProperty: pKd

{"molecule": "CC1=C(/C=C/C(C)=C/C=C/C(C)=C/C(=O)Nc2ccc(O)cc2)C(C)(C)CCC1 [HPR, N-(4-hydroxyphenyl)retinamide]", "reportedProperty": "pKd", "valueReported": "~7.52"}
{"molecule": "CC1=C(/C=C/C(C)=C/C=C/C(C)=C/C=O)C(C)(C)CCC1 [11cRAL, 11-cis retinal]", "reportedProperty": "pKd", "valueReported": "~7.52"}

Reference source: patent US8410168B2
